Data origin: the supplement of paper PMC13172266

System: U2932 TK216-resistant clone 3
Assay: cell proliferation relative to vehicle (% of vehicle); higher = less growth inhibition
Conditions: 50 nM; 72 h
readout_type: cell proliferation
The answer should be written as a number, with no unit following it.

Consider the following illustrative entries.
{"compound": "Clc1ccc(Nc2nnc(Cc3ccncc3)c3ccccc23)cc1 [Vatalanib (PTK787) 2HCl]", "cell proliferation": 108}
{"compound": "Cc1[nH]nc2ccc(-c3cncc(OC[C@@H](N)Cc4ccccc4)c3)cc12", "cell proliferation": 99.4}
{"compound": "C=CCc1ccc(O)c(-c2ccc(O)c(CC=C)c2)c1 [Honokiol]", "cell proliferation": 104}
{"compound": "Cc1cn(-c2cc(NC(=O)c3ccc(C)c(Nc4nccc(-c5cccnc5)n4)c3)cc(C(F)(F)F)c2)cn1 [Nilotinib (AMN-107)]", "cell proliferation": 102}
{"compound": "O=C1NC(=O)C(c2ccccc2[N+](=O)[O-])=C1Nc1ccc(O)c(Cl)c1", "cell proliferation": 110}
{"compound": "CN(C)CC[C@H](CSc1ccccc1)Nc1ccc(S(=O)(=O)NC(=O)c2ccc(N3CCN(Cc4ccccc4-c4ccc(Cl)cc4)CC3)cc2)cc1[N+](=O)[O-]", "cell proliferation": 96.6}
{"compound": "O=NN(CCCl)C(=O)NC1CCCCC1 [Lomustine]", "cell proliferation": 111}
{"compound": "CC(C)Oc1ccc(C(=O)N[C@H](CNC(=O)CN(C)C)Cc2ccc(-c3cn4cccc([C@H](C)O)c4n3)cc2)cc1Cl", "cell proliferation": 34.3}
{"compound": "COc1cc2c(Oc3ccc(NC(=O)C4(C(=O)Nc5ccc(F)cc5)CC4)cc3F)ccnc2cc1OCCCN1CCOCC1", "cell proliferation": 98.3}
{"compound": "COc1cc(C(=O)N2CCC(N3CCN(C)CC3)CC2)ccc1Nc1ncc2c(n1)N(C)c1ccccc1C(=O)N2C", "cell proliferation": 100}

# cell proliferation (compound: O=c1sn(-c2cccc3ccccc23)c(=O)n1Cc1ccccc1 [Tideglusib] ) is 103

# cell proliferation (compound: CNCc1ccc(-c2[nH]c3cc(F)cc4c3c2CCNC4=O)cc1 ) is 99.8

# cell proliferation (compound: C[C@@H]1CC(=O)c2c(ccc3c2C(=O)c2cccc(O)c2C3=O)C1 ) is 104

# cell proliferation (compound: CC(C)c1onc(-c2c(Cl)cccc2Cl)c1COc1ccc(/C=C/c2cccc(C(=O)O)c2)c(Cl)c1 ) is 104

# cell proliferation (compound: CN1CCN(CCOc2cc(OC3CCOCC3)c3c(Nc4c(Cl)ccc5c4OCO5)ncnc3c2)CC1 [Saracatinib (AZD0530)] ) is 99.6

# cell proliferation (compound: COc1ccc(-c2ccc3c(N4CCOCC4)nc(N4C[C@@H](C)O[C@@H](C)C4)nc3n2)cc1CO ) is 98.9

# cell proliferation (compound: C=C1/C(=C\C=C2/CCC[C@]3(C)[C@@H]([C@H](C)/C=C/[C@H](C)C(C)C)CC[C@@H]23)C[C@@H](O)C[C@@H]1O [Doxercalciferol] ) is 101
